Assay: NCI Yeast Anticancer Drug Screen. Data for the mec2-1 strain (AID 157)
Settings: S. cerevisiae mec2-1 strain, at 5.0 µM (retest, dose inferred, filed as 0.5)
Method: Growth inhibition of yeast strains with defined genetic alterations is measured as a screen for potential anti-cancer activity. Selected strains with alterations in DNA damage repair or cell cycle control were exposed to compounds and growth inhibition was measured relative to vehicle treated controls. The strain used in this assay is mec2-1
About 79,000 compounds went through this panel and 15% of them were active in at least one assay; those are over-represented in the sample as a whole. Activity calls are given as the source filed them. No stated cut-off is given here; in the data, active means growth inhibition above about 70%; inactive means the rest.
Please answer using one outcome listed in active, inactive

These recorded examples may help you get a feel for the data.
[
  {
    "COMPOUND": "CCOP1(=O)C=C(Sc2ccc([N+](=O)[O-])cc2[N+](=O)[O-])C(C)(C)O1 (stereo not given)",
    "CAT": "inactive"
  },
  {
    "COMPOUND": "COc1ccc(S(=O)(=O)N/N=C\\c2cc([N+](=O)[O-])cc(I)c2O)c(OC)c1OC",
    "CAT": "inactive"
  },
  {
    "COMPOUND": "Cc1ccc2c(ccc(/C=C/c3ccc(O)c4ncccc34)[n+]2C)c1",
    "CAT": "inactive"
  },
  {
    "COMPOUND": "Cc1onc(-c2ccccc2Cl)c1C1=N/C(=C/c2cc(Cl)cc(Cl)c2O)C(=O)O1",
    "CAT": "inactive"
  }
]

Attention now turns to another entry.
IN: How did this test come out for Cc1ccc(Nc2c3c(c(C#N)c4nc5ccccc5n24)CCCC3)cc1 ?
OUT: inactive
